Test system: SNB-75
Experiment: Growth inhibition of human SNB75 cells incubated for 48 hrs by sulforhodamine B assay
Format: functional
Settings: SNB-75, 48 h
Endpoint: GI50 (nM)
Give bare numbers, in nM.

Some compounds with known GI50 results, for comparison:
O=CN1N=C(c2ccc(Cl)cc2)CC1c1cccc(Nc2ccnc3cc(Cl)ccc23)c1 (stereo not given): 1700
COc1cc(C(=O)/C=C/c2cccc(Nc3ccnc4cc(Cl)ccc34)c2)cc(OC)c1OC: 1310
COc1ccc(C(=O)/C=C/c2cccc(Nc3ccnc4cc(Cl)ccc34)c2)cc1: 1510

For each of the compounds below, note its GI50.
1. COc1cccc2c1C(=O)c1c(O)c3c(c(O)c1C2=O)C[C@@](O)(C(=O)CO)C[C@@H]3O[C@H]1C[C@H](N)[C@H](O)[C@H](C)O1 [DOXORUBICIN]
2. COc1ccc(C2=NN(C=O)C(c3cccc(Nc4ccnc5cc(Cl)ccc45)c3)C2)cc1 (stereo not given)

1: 70; 2: 2560

###

Test system: SNB-75
Test: Growth inhibition of human SNB75 cells at 10 uM incubated for 48 hrs by sulforhodamine B assay
Format: functional, cell-based
Activity calls are given as the source filed them. No cut-off for these calls is given here.
Please answer using one outcome listed in active, inactive

Clc1ccc(C2=NN(c3ccccc3)C(c3cccc(Nc4ccnc5cc(Cl)ccc45)c3)C2)cc1 (stereo not given): inactive
COc1ccc(C2=NN(c3ccc(Cl)cc3)C(c3cccc(Nc4ccnc5cc(Cl)ccc45)c3)C2)cc1 (stereo not given): inactive
O=CN1N=C(c2ccc(Cl)cc2)CC1c1cccc(Nc2ccnc3cc(Cl)ccc23)c1 (stereo not given): active
COc1ccc(C2=NN(c3ccccc3)C(c3cccc(Nc4ccnc5cc(Cl)ccc45)c3)C2)cc1 (stereo not given): inactive
COc1cc(C2=NN(c3ccc(Cl)cc3)C(c3cccc(Nc4ccnc5cc(Cl)ccc45)c3)C2)cc(OC)c1OC (stereo not given): inactive

Could you kindly confirm the outcome this assay logged for COc1ccc(C(=O)/C=C/c2cccc(Nc3ccnc4cc(Cl)ccc34)c2)cc1 ?
active

Could you kindly confirm the outcome this assay logged for Clc1ccc(C2=NN(c3cc(Cl)cc(Cl)c3)C(c3cccc(Nc4ccnc5cc(Cl)ccc45)c3)C2)cc1 (stereo not given) ?
inactive

Could you kindly confirm the outcome this assay logged for COc1cc(C(=O)/C=C/c2cccc(Nc3ccnc4cc(Cl)ccc34)c2)cc(OC)c1OC ?
active

Could you kindly confirm the outcome this assay logged for Clc1ccc(C2=NN(c3ccc(Cl)cc3)C(c3cccc(Nc4ccnc5cc(Cl)ccc45)c3)C2)cc1 (stereo not given) ?
inactive

Could you kindly confirm the outcome this assay logged for COc1ccc(C2=NN(C=O)C(c3cccc(Nc4ccnc5cc(Cl)ccc45)c3)C2)cc1 (stereo not given) ?
active

###

For each record, write down the corresponding GI50.
System: NCI-H460
Test: Growth inhibition of human NCI-H460 cells incubated for 48 hrs by sulforhodamine B assay
Type: functional
Conditions: NCI-H460, 48 h
Give bare numbers, in µM.

Some compounds with known GI50 results, for comparison:
COc1cc(C(=O)/C=C/c2cccc(Nc3ccnc4cc(Cl)ccc34)c2)cc(OC)c1OC: 1.91
COc1cccc2c1C(=O)c1c(O)c3c(c(O)c1C2=O)C[C@@](O)(C(=O)CO)C[C@@H]3O[C@H]1C[C@H](N)[C@H](O)[C@H](C)O1 [DOXORUBICIN]: 0.02
COc1ccc(C(=O)/C=C/c2cccc(Nc3ccnc4cc(Cl)ccc34)c2)cc1: 2.23

For each of the compounds below, note its GI50.
1. COc1ccc(C2=NN(C=O)C(c3cccc(Nc4ccnc5cc(Cl)ccc45)c3)C2)cc1 (stereo not given)
2. O=CN1N=C(c2ccc(Cl)cc2)CC1c1cccc(Nc2ccnc3cc(Cl)ccc23)c1 (stereo not given)

2.73
1.86
